Property: growth; scope: individual compounds
- Tested on: PC-3 prostate
- ASSAY PROCEDURE: NCI-60 one-dose screen, 48 h (100 = growth as untreated, 0 = no growth, -100 = all killed)
- CONDITION NOTES: 10 µM unless noted
- Protocol: Growth inhibition of the PC-3 human tumor cell line is measured as a screen for anti-cancer activity. Cells are grown in 96 well plates and exposed to the test compound for 48 hours. Compounds are tested at a single concentration, which is 10^-5 M for most compounds. The reported endpoint is percent growth (GI% or GIPRCNT), where numbers from 0 - 100% represent growth inhibition, and numbers from -100% - 0 represent cell death. For example, a value of 40 represents 60% growth inhibition. […]
Compounds without any hit were thinned out: in the full panel of roughly 83,000, 20% have a hit.
Return type: number; implicit unit %.

>>> observed("Cc1ccccc1NC1CC(=O)N(c2ccc(Cl)cc2Cl)C1=O (stereo not drawn)")
97.2

Prompt line: What does the record list as growth for CCC(=O)Nc1ccc(-c2nc(-c3cccc(O)c3)c(-c3ccnc(Br)c3)[nH]2)cc1 ?
Response line: 60.5

* * *

- Tested on: SR leukemia
- ASSAY PROCEDURE: NCI-60 one-dose screen, 48 h
- CONDITION NOTES: 10 µM unless noted
This is part of a sample that, as a whole, favours compounds with a hit. Of some 83,000 tested, about 20% had one in any assay. Calls of active or inactive are those of the source. How the source made its calls: active means growth percent below 10; inactive means the rest.
Hi there, use one of these labels in your reply, thanks! active, inactive

>>> discrete_label("C#CCOc1ccccc1C(Nc1ccccc1)c1nnnn1C1CCCCC1 (centres undefined)")
"inactive"
>>> discrete_label("CCOC(=O)/C(F)=C/C1CC1CCc1cccc(C(F)(F)F)c1 (centres undefined)")
"inactive"
>>> discrete_label("Cc1ccc(-c2cc3nc(C(Cl)Cl)nc(-c4ccccc4)n3n2)cc1")
"inactive"
>>> discrete_label("O=c1[nH]c2cc(Cl)ccc2n1C1CCN(c2ccc3nnc(Cl)n3n2)CC1")
"inactive"
>>> discrete_label("COc1cc(NC2=C(Cl)C(=O)c3nc(C)ccc3C2=O)cc(OC)c1")
"active"
>>> discrete_label("Cc1cc(=O)n2nc(-c3cn(C)c4ccc(Cl)cc34)sc2n1")
"inactive"
>>> discrete_label("Cn1ccnc1C(=O)/C=C/c1ccc(C(=O)Nc2ccc(NC(=O)CCNC(=O)c3csc(Br)n3)cc2)cc1")
"inactive"
>>> discrete_label("CCN1C(=O)N(CC)C2SC(N/N=C/c3ccccc3F)=NC21 (centres undefined)")
"inactive"

Prompt line: I'd appreciate the recorded outcome for COc1ccc(OC)c([C@H]2c3[nH]c4ccccc4c3C[C@H]3C(=O)N(CCCCCCC(=O)NO)CC(=O)N23)c1 from this test.
Response line: inactive

Prompt line: I'd appreciate the recorded outcome for c1ccc(-c2c(-c3ccccc3)[n+](Cc3ccc4ccccc4c3)c(-c3ccccc3)n2Cc2ccc3ccccc3c2)cc1 from this test.
Response line: active

* * *

- Test system: RPMI-8226 leukemia
- ASSAY PROCEDURE: NCI-60 one-dose screen, 48 h (100 = growth as untreated, 0 = no growth, -100 = all killed)
- CONDITION NOTES: 10 µM unless noted
About 83,000 compounds went through this panel and 20% of them were active in at least one assay; those are over-represented in the sample as a whole. The source made the active and inactive calls. The calls were made as follows: active = growth percent below 10; inactive = the rest.
QUANTITY: growth

Consider the worked cases shown below.
>>> observed("COc1ccc(-c2ccc3c4c(cccc24)C(=O)N(N2C(=O)c4cccc5cccc(c45)C2=O)C3=O)cc1")
"29.4% (inactive)"
>>> observed("COC1=C(c2ccccc2)C(=O)C(OC)=C(c2ccccc2)C1=O")
"93.5% (inactive)"
>>> observed("CC1(C)CC[C@]2(C(=O)O)CC[C@]3(C)C(=CCC4[C@@]5(C)C[C@@H](O)[C@@H]6OC(c7cccc([N+](=O)[O-])c7)OC[C@@]6(C)C5CC[C@]43C)C2C1 (stereo partly drawn)")
"56% (inactive)"
>>> observed("COc1ccc2oc3c4[nH]c5ccccc5c4c4c(c3c2c1)C(=O)N(O)C4=O")
"91.9% (inactive)"
>>> observed("CC1CCc2c(sc3nc(SCC(=O)N/N=C/c4ccc(Cl)cc4)n(-c4ccccc4)c(=O)c23)C1 (stereo not drawn)")
"101% (inactive)"
>>> observed("COc1ccc(Cn2cc3c(c2-c2cc(OC)c(OC)c(OC)c2)CCCc2cnoc2-3)cc1")
"23.4% (inactive)"

Prompt line: What does the record list as growth for CCOC(=O)C1=C(C)Nc2nc3ccccc3n2C1c1ccccc1 (stereo not drawn) ?
Response line: 97.4% (inactive)

Prompt line: What does the record list as growth for COc1ccc(-c2nc3cc(Cl)c(Cl)cc3n2CC(=O)N=Nc2c(O)[nH]c3ccc(Cl)cc23)cc1 ?
Response line: 40.2% (inactive)
